Test system: U-251
Protocol details: NCI tumour cell line growth inhibition, 48 h
Calls of active or inactive are those of the source. Cut-off read from the data, not from the text of the source: active = GI50 up to about 1.1 µM and inactive = higher.
What GI50 was measured for each of the following?

CCc1ccc(Nc2cc(=O)[nH]c(=S)n2C)cc1    > 100 µM (inactive)

Okay, here is my list. What is GI50 for each of these?
1. N#C/C=c1/c2ccccc2n2nc3ccccc3c12
2. COc1ccc(-c2cc(O)c3nc4ccccc4n3c2)cc1
3. NC(Cc1ccc(O)cn1)C(=O)NC(C(=O)O)c1ccccc1 (centres undefined)
4. CN(C)c1ccc(/C=C/C(=O)c2ccc(O)cc2)cc1
5. CN1N=C(c2ccccc2)C(C(c2ccccc2[N+](=O)[O-])C2C(=O)N(C)N=C2c2ccccc2)C1=O (centres undefined)
6. CN(C)/N=N/c1ccc(C(N)=O)cc1
7. O=C1CCC2(O)C3Cc4ccc(Oc5nnnn5-c5ccccc5)c5c4C2(CCN3CC2CC2)C1O5 (centres undefined)
8. C[C@]12CC[C@@H]3c4ccc(O)cc4CC[C@H]3[C@@H]1C/C(=C\c1ccc([N+](=O)[O-])cc1)C2=O

1. 12 µM (inactive)
2. > 100 µM (inactive)
3. > 100 µM (inactive)
4. 3.99 µM (inactive)
5. > 100 µM (inactive)
6. > 100 µM (inactive)
7. 33.4 µM (inactive)
8. 40.1 µM (inactive)

Okay, here is my list. What is GI50 for each of these?
1. O=C(/C=C1\Nc2ccc([N+](=O)[O-])cc2N\C1=C/C(=O)c1ccc(F)cc1)c1ccc(F)cc1
2. CC(O)(CNS(=O)(=O)c1ccccc1)c1ccccc1 (centres undefined)
3. Cc1c(C(Cc2ccccc2N(C)C(=O)/C=C\C(=O)O)c2c[nH]c3ccccc23)c2ccccc2n1C (centres undefined)

1: 10.2 µM (inactive); 2: > 100 µM (inactive); 3: 16.4 µM (inactive)

---

Tested on: MOLT-4
Protocol details: NCI tumour cell line growth inhibition, 48 h
Activity calls are given as the source filed them. Cut-off read from the data, not from the text of the source: active = GI50 up to about 1.1 µM and inactive = higher.
Respond using exactly one of the listed classes: active, inactive

Cc1c(Cl)ccc2c1NC(=O)C2(O)C1Cc2ccccc2C1=O (stereo unspecified)    inactive
Nc1nc(=O)n(C2OC(CO)C(O)C2O)c2ncc(-c3ccc(-c4ccccc4)cc3)nc12 (stereo unspecified)    inactive
CC(=O)OC1CCCn2c1nc1c2C(=O)C(C)=C(N2CC2)C1=O (stereo unspecified)    inactive
CC(Oc1ccc(OCC2CCCCC2)cc1)C(=O)NCCO (stereo unspecified)    inactive
O=c1[nH]c(=O)n(C2OC(COP(=O)(O)OP(=O)(O)O)C(O)C2O)cc1F (stereo unspecified)    active

// param item: CNS(=O)(=O)c1ccccc1C(=N)c1ccccc1 ; yields the recorded call
inactive

// param item: CC1=NN(C(=O)CC(=O)Nc2cccc(C)c2)C(=O)C1/N=N\c1ccc(S(=O)(=O)c2ccc(/N=N/C3C(=O)N(C(=O)CC(=O)Nc4cccc(C)c4)N=C3C)cc2)cc1 (stereo unspecified) ; yields the recorded call
inactive

// param item: COC(=O)C1(Cc2ccccc2)Cc2cc3c(cc2C1)CCC3 ; yields the recorded call
inactive

// param item: O=C1C(N2CCOCC2)=C(Cl)C(=O)c2ncccc21 ; yields the recorded call
active

---

Test system: DU-145
Protocol details: NCI tumour cell line growth inhibition, 48 h
Activity calls are given as the source filed them. Cut-off read from the data, not from the text of the source: active = GI50 up to about 1.1 µM and inactive = higher.
Quantity name: GI50

C=CC1(CC/C(=C\[N+](=O)[O-])c2ccc(OC)c(OC)c2)OCC(C)(C)CO1    16.7 µM (inactive)
COc1cc(OC)c(OC)cc1/C=C\c1nccc2ccccc12    16.3 µM (inactive)
CC(O[Si](C)(C)C(C)(C)C)[C@H](NC(=O)OCC(Cl)(Cl)Cl)C(=O)O (stereo not given in full)    > 100 µM (inactive)
O=C1N/C(=N/N=C/c2cccs2)N/C1=C\c1ccco1    > 100 µM (inactive)

Attention now turns to another entry.
The compound listed as CC1=NN(C(=O)c2ccccc2O)C(=O)/C1=C/c1cccc([N+](=O)[O-])c1 has a reported GI50 of 1.55 µM (inactive)
